Assay procedure: Hygroscopicity study by dynamic vapor sorption (DVS) analysis
Type: physicochemical
Assay setup: 90% RH at 25° C.
Readout type: water absorbed (water adsorption) (wt %)
Answers are plain numbers, in wt %.

CC1(C)C(=O)N(C2CCN(C(=O)[C@H](CCc3ccccc3)NC(=O)[C@@H]3CCCNC3)CC2)c2ccccc21.O=C(O)CNC(=O)c1ccccc1 [hippurate salt crystalline] :: 16.0
CC1(C)C(=O)N(C2CCN(C(=O)[C@H](CCc3ccccc3)NC(=O)[C@@H]3CCCNC3)CC2)c2ccccc21.CS(=O)(=O)O [mesylate salt crystalline] :: 16.9

Okay, next one:
Query: Consider the molecule CC1(C)C(=O)N(C2CCN(C(=O)[C@H](CCc3ccccc3)NC(=O)[C@@H]3CCCNC3)CC2)c2ccccc21 [Free-base Amorphous] . State its measured water absorbed (water adsorption).
Result: 17.9

Attribution: patent US12552776B2
